Hello, the source for this data is patent US20030148956A1, in case you need it.

target: CRF1R; test: cell-based or functional assay
Ends that are not written are not given here.
# CRF1R EC50 listing for each entry below

BINDER | CRF1R EC50
SQEPPISLDLPIHLLREVLEMTKADQLAQQAHSNRKLLDIA-NH2 [SEQ ID NO 94] | 100 nM
IVLSLDVPIGLLQILLEQAAAREQATTNARILARV-NH2 [SEQ ID NO 139] | > 100 nM

GET /values?readout=CRF1R EC50&item= ZGPPISIDLPTSLLRKMIEIEKQEKEKQQAANNRLLLDTI (C-terminal amide) [SEQ ID NO 43]
> 1000 nM
